# Test system: IGROV-1
# Method Summary: Cytotoxicity against human IGROV1 cells after 1 hr
# Format: functional, cell-based
# Condition Info: IGROV-1, 1 h
Property Name: pIC50
Answers are plain numbers, as −log10 of the molar value.

chemical_string=CC[C@@]1(O)C(=O)OCc2c1cc1n(c2=O)Cc2cc3ccccc3nc2-1 system=IGROV-1 reported_measurement=5.78

Note: attention shifts to another entry.
Simply: `CC[C@@]1(O)C(=O)OCc2c1cc1n(c2=S)Cc2cc3ccccc3nc2-1` , IGROV-1, pIC50 = 6.66

---

# Test system: HT-29
# Method Summary: Cytotoxicity against human mitoxantrone-resistant HT29 cells after 1 hr
# Type: functional, cell-based
# Condition Info: HT-29, 1 h
Property Name: IC50 (nM)
Give bare numbers, in nM.

IC50 for `CC[C@@]1(O)C(=O)OCc2c1cc1n(c2=S)Cc2cc3ccccc3nc2-1` is 110

---

# System: NCI-H460
# Method Summary: Cytotoxicity against human H460 cells after 1 hr
# Assay type: functional, cell-based
# Condition Info: NCI-H460, 1 h
Property Name: pIC50
Give bare numbers, as −log10 of the molar value.

pIC50 for `CC[C@@]1(O)C(=O)OCc2c1cc1n(c2=S)Cc2cc3ccccc3nc2-1` is 6.85
